Values from patent US20150166606A1

Target: Activated human plasma kallikrein (Enzyme Research Laboratories, HPKa 1303) (human, UniProt P03952 20-638)
Sequence (P03952 20-638 limits assumed): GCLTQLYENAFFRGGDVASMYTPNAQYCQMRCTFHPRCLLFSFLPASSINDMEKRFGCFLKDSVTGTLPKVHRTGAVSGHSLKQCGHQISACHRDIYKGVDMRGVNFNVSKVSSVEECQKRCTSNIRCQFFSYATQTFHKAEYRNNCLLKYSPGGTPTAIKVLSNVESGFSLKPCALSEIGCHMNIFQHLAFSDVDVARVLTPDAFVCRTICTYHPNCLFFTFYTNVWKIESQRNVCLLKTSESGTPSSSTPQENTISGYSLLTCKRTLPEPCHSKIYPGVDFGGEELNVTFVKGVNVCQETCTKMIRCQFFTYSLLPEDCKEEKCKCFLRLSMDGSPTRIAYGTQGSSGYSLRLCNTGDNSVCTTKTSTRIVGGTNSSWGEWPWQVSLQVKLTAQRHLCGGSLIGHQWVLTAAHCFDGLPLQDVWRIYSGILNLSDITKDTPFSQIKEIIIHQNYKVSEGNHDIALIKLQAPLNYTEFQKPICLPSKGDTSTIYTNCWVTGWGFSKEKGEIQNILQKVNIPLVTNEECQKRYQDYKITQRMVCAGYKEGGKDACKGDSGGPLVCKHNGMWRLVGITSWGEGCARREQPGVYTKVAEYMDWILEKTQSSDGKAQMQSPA
Assay: cell-based or functional assay
Bridge positions count the residues as written; N and C are the ends. Square brackets hold non-standard residues; d marks the D form. mXylyl = xylyl linker from dibromoxylene joining the two cysteines; Trp(5-Cl) = N[C@@H](Cc1c[nH]c2ccc(Cl)cc12)C(=O)O; des‑NH2 = missing amino-terminal amine group; Phe(3-Cl) = N[C@@H](Cc1cccc(Cl)c1)C(=O)O; Phe(4-Cl) = N[C@@H](Cc1ccc(Cl)cc1)C(=O)O; dPhg = N[C@@H](C(=O)O)c1ccccc1; Phg = N[C@H](C(=O)O)c1ccccc1; Tle = CC(C)(C)[C@H](N)C(=O)O
// reported Avg. IC50 per item

Here is how some binders turned out for Avg. IC50.
[[record]]
binder = "{des‑NH2}-CP[dPhg]C[Phe(3-Cl)][Tle]-NH2 (linker 1-4 via mXylyl) [R2208]"
quantity_name = "Avg. IC50"
result = "> 75 µM"

[[record]]
binder = "{des‑NH2}-CP[Phg]C[Phe(4-Cl)][Tle]-NH2 (linker 1-4 via mXylyl) [R2205]"
quantity_name = "Avg. IC50"
result = "> 75 µM"


Prompt line: Answer with reported Avg. IC50 of {des‑NH2}-CP[dPhg]C[Trp(5-Cl)][Tle]-NH2 (linker 1-4 via mXylyl) [R2210]
Response line: > 75 µM
